# target_entity: Lp-PLA2 (Homo sapiens, UniProt Q13093)
# Construct: aliquoted and thawed 40 μL of pooled human plasma was previously added; from tissue; host or cells: pooled human plasma
# Sequence (Q13093 22-441): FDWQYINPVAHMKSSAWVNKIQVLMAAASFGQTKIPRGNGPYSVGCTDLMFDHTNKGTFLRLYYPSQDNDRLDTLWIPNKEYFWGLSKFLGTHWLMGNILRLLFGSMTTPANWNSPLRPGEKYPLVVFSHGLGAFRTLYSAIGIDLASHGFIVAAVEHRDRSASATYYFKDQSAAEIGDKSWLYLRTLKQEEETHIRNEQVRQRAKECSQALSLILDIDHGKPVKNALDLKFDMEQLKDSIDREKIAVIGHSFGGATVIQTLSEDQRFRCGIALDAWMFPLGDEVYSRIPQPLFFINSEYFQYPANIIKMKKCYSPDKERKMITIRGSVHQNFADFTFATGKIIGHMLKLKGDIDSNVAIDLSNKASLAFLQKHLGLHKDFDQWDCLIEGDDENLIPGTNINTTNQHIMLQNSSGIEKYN
# assay_protocol: Lipoprotein-associated phospholipase A2 (Lp-PLA2) human plasma assay (Thio-PAF assay)
# Format: biochemical
# run_conditions: Lp-PLA2 human plasma assay (Thio-PAF), pooled human plasma, 30-min pre-incubation at room temperature
pIC50: −log10 of the molar value.
Entries and their pIC50 values follow.
assay_metric: pIC50

Cc1cc(Oc2ccc(COc3cc4n(c(=O)n3)CC35CC(CN43)C5)cc2F)ccn1    8.09
COc1c(OCCc2ccc(Oc3ccnc(C(F)(F)F)c3)cc2)nc(=O)n2c1N1CC3CC1(C3)C2    8.04
O=c1nc(OCc2cc(F)c(F)c(F)c2)cc2n1C[C@]13CO[C@H](CN21)C3    7.88
O=c1nc(OCc2ccc(F)c(F)c2)cc2n1C[C@]13CO[C@H](CN21)C3    7.98
O=c1nc(OCc2cc(F)c(Oc3ccc(F)cc3)c(F)c2)cc2n1C[C@]13CO[C@H](CN21)C3    8.19

# credit: patent US20230044787A1
